target: Rap guanine nucleotide exchange factor 3 (Homo sapiens) (UniProt O95398); assay: Confirmatory qHTS for antagonist of cAMP-regulated guanine nucleotide exchange factor 3 (EPAC1) (AID 1645880); details: EPAC1 Rap1B-BODIPY-GDP exchange, fluorescence; note: nearly all actives have a fitted effect of over 55% in size
Sequence (O95398 whole entry, looked up): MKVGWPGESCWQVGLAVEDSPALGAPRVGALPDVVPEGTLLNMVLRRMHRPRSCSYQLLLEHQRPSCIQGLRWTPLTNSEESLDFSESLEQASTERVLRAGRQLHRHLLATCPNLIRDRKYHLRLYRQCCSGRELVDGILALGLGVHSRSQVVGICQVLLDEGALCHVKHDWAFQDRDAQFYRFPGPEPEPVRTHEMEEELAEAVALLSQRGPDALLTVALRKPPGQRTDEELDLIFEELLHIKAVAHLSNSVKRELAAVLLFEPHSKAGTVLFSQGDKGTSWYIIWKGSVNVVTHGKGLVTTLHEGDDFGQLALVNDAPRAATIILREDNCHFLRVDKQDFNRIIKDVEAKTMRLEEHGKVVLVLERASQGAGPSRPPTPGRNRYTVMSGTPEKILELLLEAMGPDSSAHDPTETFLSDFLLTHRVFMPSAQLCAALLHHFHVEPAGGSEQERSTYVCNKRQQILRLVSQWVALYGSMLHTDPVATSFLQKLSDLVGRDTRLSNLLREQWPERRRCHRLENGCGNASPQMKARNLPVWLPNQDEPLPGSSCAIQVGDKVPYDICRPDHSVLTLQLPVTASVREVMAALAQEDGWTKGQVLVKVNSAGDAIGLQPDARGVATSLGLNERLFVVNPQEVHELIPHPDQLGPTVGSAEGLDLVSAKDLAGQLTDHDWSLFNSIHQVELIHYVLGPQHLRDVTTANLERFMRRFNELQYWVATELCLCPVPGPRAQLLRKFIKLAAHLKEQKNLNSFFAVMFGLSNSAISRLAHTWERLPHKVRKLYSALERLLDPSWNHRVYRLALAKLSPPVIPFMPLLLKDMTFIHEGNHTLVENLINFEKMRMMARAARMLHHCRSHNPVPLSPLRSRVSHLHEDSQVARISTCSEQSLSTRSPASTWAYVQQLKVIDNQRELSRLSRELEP
Results filed as inconclusive are left out. Activity calls are given as the source filed them. Calls come from the whole dose curve; as a rule, active = well fitted inhibition curve with a large enough effect; inconclusive = small, poorly fitted or top-dose-only effect; inactive = no such curve, though single readings can be large or run the other way.
# output must be one of class 1 for active, class 0 for inactive

Challenge: Assay result, entry COC(=O)c1cn(C(=O)c2ccccc2Cl)c2ccccc12 — outcome?
Response given: class 0

Challenge: Same question, CCCn1c(=O)n(C)c(=O)c2c(SCC(=O)NCc3ccco3)nc(C3CC3)nc21 this time
Response given: class 0

Challenge: Then this compound: CCN(CC)c1ccc2cc(-c3nc(-c4ccccc4)no3)c(=O)oc2c1
Response given: class 0

Challenge: Same lookup for COc1cc(/C=C(\C#N)c2nc3ccccc3o2)ccc1O , please.
Response given: class 0

Challenge: Continue with Cc1ccc(CNC(=O)c2ccc3c(c2)nc(C)n3-c2cccc(F)c2)cc1
Response given: class 0

Challenge: How about CS(=O)(=O)c1ccc2c(c1)SC1=NC(=O)/C(=C/c3ccco3)C(=N)N12 ?
Response given: class 1

Challenge: How about N#C/C(=C\C1=C(N2CCOCC2)C(=C/c2cccc([N+](=O)[O-])c2)/CC1)C(=O)Nc1ccccc1F ?
Response given: class 1

Challenge: Try the compound O=C(Nc1ccccc1OCc1ccccc1)c1ccccc1Br
Response given: class 0

Challenge: Now consider CCC(=O)NC(c1ccc(C)cc1)c1cc([N+](=O)[O-])c2cccnc2c1O (stereo unspecified) and answer again.
Response given: class 1

Challenge: Param item: O=C(O)CN1C(=O)/C(=C\c2cc(Br)ccc2OCc2ccc([N+](=O)[O-])cc2)SC1=S
Response given: class 1

Challenge: // same read-out, input: O=C(CNC(=O)c1sc2ccccc2c1Cl)NCc1cccc(C(F)(F)F)c1
Response given: class 0

Challenge: Try Cc1cc(/C=C2\SC(=S)NC2=O)c(C)n1-c1ccc(O)cc1 next.
Response given: class 1

Challenge: Proceed to COC(=O)c1ccc2nc(-c3ccc(F)cc3)c(Cc3ccccc3)n2c1
Response given: class 0

Challenge: Would you mind doing O=[N+]([O-])c1ccccc1O[C@@H]1O[C@H](CO)[C@H](O)[C@H](O)[C@H]1O as well?
Response given: class 0

Challenge: Another: COc1ccc(S(=O)(=O)Nc2cccc(C)c2C)c2cccnc12
Response given: class 0

Challenge: Same read-out for O=C1c2cccc3c(O)ccc(c23)C(=O)N1Cc1ccco1 ?
Response given: class 0

Challenge: Input Cc1ccc(OCc2nc3ccccc3n2CC(C)C)cc1
Response given: class 0

Challenge: Likewise for CC(C)NC(=O)c1sc(=S)n2c1[nH]c(=O)c1ccc(C(=O)NCCc3ccc(Cl)cc3)cc12 ?
Response given: class 1

Challenge: What about c1cncc(-c2nc(NCCCN3CCOCC3)c3c4c(sc3n2)CCC4)c1 ?
Response given: class 0

Challenge: What would you report for O=c1[nH]nc(CNc2ccc(O)cc2)c2ccccc12 ?
Response given: class 0

Challenge: Subsequent entry: CC(OC(=O)/C(C#N)=C/c1ccc(N(C)C)cc1)C(=O)N(C)Cc1ccccc1 (stereo unspecified)
Response given: class 0

---

tested on: CP325; assay: qHTS profiling for inhibitors of Plasmodium falciparum proliferation (AID 504749); note: nearly all actives have a fitted effect of over 60% in size; settings: P. falciparum in erythrocytes, SYBR Green DNA, 72 h; series mostly up to 28.7 µM
Results filed as inconclusive are left out. The source made the active and inactive calls. Calls come from the whole dose curve; as a rule, active = well fitted inhibition curve with a large enough effect; inconclusive = small, poorly fitted or top-dose-only effect; inactive = flat fitted curve, though single readings scatter.
Valid outcomes are listed here; reply with one: active, inactive

Challenge: Entry CN(C)CCCCCCN(C)C : call = ?
Response given: inactive

Challenge: Try the molecule CCC(C)n1ncn(-c2ccc(N3CCN(c4ccc(OCC5COC(Cn6cncn6)(c6ccc(Cl)cc6Cl)O5)cc4)CC3)cc2)c1=O (stereo not given)
Response given: inactive

Challenge: Repeat for the following molecule: CN1CC[C@H](CN2c3ccccc3Sc3ccccc32)C1
Response given: active

Challenge: Same for CC(=O)OC1CC2CCC1(C)C2(C)C (stereo not given)
Response given: inactive

Challenge: What about this molecule? CC1CCC(C(C)C)C(OC(=O)c2ccccc2O)C1 (stereo not given)
Response given: inactive

---

experiment: Cell Viability - LYMP2-022 (AID 987); settings: LYMP2-022 lymphoblastoid cell viability; series mostly up to 92.2 µM;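 note: cells exposed to compound for 24 hr; 0% = DMSO alone and full effect = tetraoctylammonium bromide at 92 µM; nearly all actives have a fitted effect of over 55% in size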
Records with an inconclusive call do not appear. Activity calls are given as the source filed them. Calls follow the shape of the dose curve; as a rule, active = well fitted cell-killing curve with a large enough effect; inconclusive = small, poorly fitted or top-dose-only effect; inactive = flat fitted curve, though single readings scatter.
Observation type: outcome

Molecule	outcome
Cc1c(N=C=O)cccc1N=C=O	inactive
O[C@@H]([C@H](O)[C@@H](O)CBr)[C@@H](O)CBr	inactive
CC(=O)OC/C=C(\C)CCC=C(C)C	inactive
C=CC(=C)CCC=C(C)C	inactive
O=NO	inactive

Challenge: For the molecule shown here, c1ccc2c(c1)c1cccc3ccc4cccc2c4c31 , give the reported outcome.
Response given: inactive

Challenge: Then C=Cc1ccccc1Cl ?
Response given: inactive

Challenge: Repeat with O=C(/C=C/c1ccc(O)c(O)c1)O[C@@H](C(=O)O)[C@@H](OC(=O)/C=C/c1ccc(O)c(O)c1)C(=O)O
Response given: inactive

---

biological target: Dual specificity protein kinase CLK4 (Homo sapiens); assay: qHTS Assay for Inhibitors of CDC-like Kinase 4 (ADP-Glo Assay) (AID 1771); conditions: recombinant CLK4, ADP-Glo luminescence; series mostly up to 80 µM; note: nearly all actives have a fitted effect of over 70% in size
Results filed as inconclusive are left out. Activity calls are given as the source filed them. The call rests on the fitted dose curve; in most records, active means well fitted inhibition curve with a large enough effect; inconclusive means small, poorly fitted or top-dose-only effect; inactive means flat fitted curve, though single readings scatter.
Thanks in advance; please answer with one of these: Yes (active), No (inactive)

Challenge: Give the logged outcome of this assay for the following compound: COc1cccc(-c2cncnc2NCCc2c[nH]c3ccc(OC)cc23)c1
Response given: Yes

Challenge: Try this compound too: Cn1c(=O)c(-c2ccc(Cl)cc2)nc2cncnc21
Response given: No

Challenge: Quick one: CCNc1ncc2ncc(=O)n(Cc3cccc(OC)c3)c2n1
Response given: Yes

Challenge: Another compound: COc1cccc(-c2nc(NCCN3CCOCC3)c3ccccc3n2)c1
Response given: Yes

Challenge: Now the same for COCCNc1ncnc2ccc(-c3ccccc3OC)cc12
Response given: Yes

Challenge: Likewise for COc1ccccc1CNc1ncncc1-c1ccc2c(c1)OCO2 ?
Response given: Yes

Challenge: Now consider COc1cccc(Cn2c(=O)cnc3cnc(Nc4cccc(OC)c4)nc32)c1 .
Response given: Yes

Challenge: Continue with COc1ccc2[nH]cc(CCNc3ncncc3-c3ccoc3)c2c1
Response given: Yes

Challenge: Would you mind doing COc1cccc(Cn2c(=O)c(CCc3ccccc3)nc3cnc(N4CCN(C)CC4)nc32)c1 as well?
Response given: No

Challenge: Entry COc1ccccc1CNc1cc(-c2ccccc2CN(C)C)ncn1 please
Response given: No

Challenge: Now try COc1ccc(-c2nc3cnc(Oc4cccc(Cl)c4)nc3n(C[C@H]3CCCO3)c2=O)cc1 .
Response given: No

Challenge: Next record, please: COc1ccccc1CNc1ncnc2ccc(-c3cccc(NS(C)(=O)=O)c3)cc12
Response given: Yes

Challenge: Follow-up item: COc1cccc(-c2ccc3ncnc(N4CCNCC4)c3c2)c1
Response given: Yes

Challenge: What do you get for N#CCCn1c(=O)c(-c2ccc(Cl)cc2)nc2cnc(N3CCOCC3)nc21 ?
Response given: No

Challenge: Please do the same for CN(Cc1ccco1)c1nc(-c2cccnc2)nc2ccccc12 as well.
Response given: Yes

Challenge: How about COc1ccc(Oc2ncc3nc(-c4ccc(F)cc4)c(=O)n(CCC#N)c3n2)cc1 ?
Response given: No

Challenge: Entry to check: CN(C)c1ccc(-c2nccc(NCc3cccs3)n2)cc1
Response given: Yes

Challenge: And what about the compound COc1ccc(CNc2cc(-c3cccc(NS(C)(=O)=O)c3)ncn2)c(OC)c1 ?
Response given: No

Challenge: Next compound: O=c1c(CCc2ccccc2)nc2cnc(Oc3ccccc3)nc2n1C1CC1
Response given: No

Challenge: What do you get for Cc1cnc(CNc2ncnc3ccc(-c4ccc(N(C)C)cc4)cc23)cn1 ?
Response given: Yes

Challenge: Can you check COc1cccc(-c2cncnc2NCc2ccccc2OC)c1 next?
Response given: Yes

Challenge: Same for Cc1cccc(CNc2ncncc2-c2ccccc2CN(C)C)c1
Response given: No

Challenge: Can you handle COc1cccc(-c2ccc3ncnc(Nc4ccccc4)c3c2)c1 next?
Response given: Yes

---

target: Cytochrome P450 2D6 (Homo sapiens) (UniProt P10635); test: qHTS for inhibitors of CYP2D6 against the NCATS DSHEA and TCM libraries (AID 1919972); settings: CYP2D6 enzymatic inhibition, luminescence qHTS; series mostly up to 34.1 µM
Sequence (P10635 whole entry, looked up): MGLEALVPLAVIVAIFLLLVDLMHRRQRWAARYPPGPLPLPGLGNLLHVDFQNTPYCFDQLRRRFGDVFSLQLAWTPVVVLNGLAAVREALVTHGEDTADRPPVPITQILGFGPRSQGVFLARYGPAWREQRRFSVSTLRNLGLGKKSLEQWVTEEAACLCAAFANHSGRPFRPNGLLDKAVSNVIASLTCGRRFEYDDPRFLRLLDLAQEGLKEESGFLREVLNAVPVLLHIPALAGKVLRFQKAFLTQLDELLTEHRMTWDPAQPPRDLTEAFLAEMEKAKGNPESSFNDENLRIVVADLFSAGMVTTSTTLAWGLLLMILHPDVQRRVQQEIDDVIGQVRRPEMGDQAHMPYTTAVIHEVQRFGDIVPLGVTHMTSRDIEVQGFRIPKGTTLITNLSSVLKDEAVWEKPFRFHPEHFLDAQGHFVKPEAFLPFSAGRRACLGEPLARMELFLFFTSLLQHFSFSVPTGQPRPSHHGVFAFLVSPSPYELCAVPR
Results filed as inconclusive are left out. Active and inactive are the calls of the source. Calls come from the whole dose curve; as a rule, active = well fitted inhibition curve with a large enough effect; inconclusive = small, poorly fitted or top-dose-only effect; inactive = no such curve, though single readings can be large or run the other way.
Field 'call' accepts Y for active, N for inactive

Challenge: Give the logged outcome of this assay for the following compound: CC1=CC[C@H](C(C)C)C=C1
Response given: N

Challenge: And then O=Cc1ccccc1O , what is it?
Response given: N

Challenge: Repeat with CCCCCCCCCCCCCC(=O)OCC(O)CO (stereo unspecified)
Response given: N

Challenge: Record: OCC1=C[C@@H](O)[C@@H]2C=CO[C@@H](OC3O[C@H](CO)[C@@H](O)[C@H](O)[C@H]3O)[C@H]12 (stereo partly specified)
Response given: N

Challenge: Proceed to CC(C)=CCC[C@](C)(O[C@@H]1O[C@H](CO)[C@@H](O)[C@H](O)[C@H]1O)[C@H]1CC[C@]2(C)[C@@H]1[C@H](O)C[C@@H]1[C@@]3(C)CC[C@H](O)C(C)(C)[C@@H]3[C@@H](O[C@@H]3O[C@H](CO)[C@@H](O)[C@H](O)[C@H]3O[C@@H]3O[C@@H](C)[C@H](O)[C@@H](O)[C@H]3O)C[C@]12C
Response given: N

Challenge: Try O=c1c(O[C@@H]2O[C@H](CO)[C@H](O)[C@H](O)[C@H]2O)c(-c2ccc(O)c(O)c2)oc2cc(O)cc(O)c12 next.
Response given: N

Challenge: Let us now turn to C=C1C[C@@]23CC[C@H]4[C@@](C)(CCC[C@@]4(C)C(=O)O[C@@H]4O[C@H](CO)[C@@H](O)[C@H](O)[C@H]4O[C@@H]4O[C@H](CO)[C@@H](O)[C@H](O)[C@H]4O)[C@@H]2CC[C@]1(O[C@@H]1O[C@H](CO)[C@@H](O)[C@H](O)[C@H]1O[C@@H]1O[C@H](CO)[C@@H](O)[C@H](O)[C@H]1O)C3
Response given: N

Challenge: Now consider COc1cc(/C=C/c2ccccc2)oc(=O)c1 and answer again.
Response given: N

Challenge: Next record, please: CCCCCCC/C=C/C(=O)CCc1ccc(O)c(OC)c1
Response given: Y

Challenge: Another compound: CC1=CCC(O)(C(C)C)CC1 (stereo unspecified)
Response given: N

Challenge: Then this compound: O=C(/C=C/c1ccc(O)c(O)c1)O[C@@H]1CC(O)(C(=O)O)C[C@@H](OC(=O)/C=C/c2ccc(O)c(O)c2)C1O (stereo partly specified)
Response given: N
